All values here come from the supplement of paper PMC9170038.

system: MS2 coat protein; assay: apparent KD of MS2 coat protein; designed switch direction (-1 OFF switch, 1 ON switch): -1; higher = weaker reporter binding; settings: input ligand: none
For each record, write down the corresponding apparent KD of MS2 coat protein.
One number for each entry, in nM.

Quick batch: apparent KD of MS2 coat protein for everything below.
1. GACAGGGCAGGAUAUCGAGAUCCGCACAUGAGGAUCACCCAUGUUCGGUCGAAAGACCGACGAGAAGGGCCGUGUC [Omei Ex5 E5] (Eterna round: R97, puzzle: Exclusion 5)
2. CGGCCGCAAGUCAGGAUAUGGACCUGCUUGGAGGACCAGAAGGGACAUGAGGAUCACCCAUGUGAUGAAAUAAA [BmEX4 A.24] (Eterna round: R97, puzzle: Brourd's mod of Exclusion 4)
3. UUCUUGCGCGUGAGGAUAUGCUGAUCCCAGGAUUAGCAGAAGGCACAUGAGGAUCACCCAUGUCCAACUUGUCU [LRO-BmodExc4-15- Bluer = mod of Colors by Tatyana Zabanova] (Eterna round: R97, puzzle: Brourd's mod of Exclusion 4)

Result:
[869, 28.3, 38.6]

---

For each record, write down the corresponding apparent KD of MS2 coat protein.
test system: MS2 coat protein; assay: apparent KD of MS2 coat protein; higher = weaker reporter binding; conditions: Eterna round: R107; input ligand: theophylline 20 uM
Answers are plain numbers, in nM.

Below: 5 sequences and their reported apparent KD of MS2 coat protein.
GAAACGUAGGUGGAGCGGUGAAAUGGCGAUACCAGCGUGGAAACAUGCCCUUGGCAGCGUUAGAACAUGAGGAUCACCCAUGUUU [#22 Exclusion-TheophyllineA] = 15.4
AGCCGGAUUACGGCCGCCACUGUAGACGUGACGAAAGUCGCGUCAACAUGAGGAUCACCCAUGUACAGGACCGGGUGGUCCGGCA [Omei Trp B SS A v3] = 11.2
AAUUCCUCACAUGAGGAUCACCCAUGUGAAGGAGCGCCGAAUAAGGCAGGUAGGUCGCACAUGGAAACCGCUACGAAAGUAGUAA [XArg-A 2 NuV2] = 25.3
ACACAAUACAUGAGGAUCACCCAUGUAAAACGAGGACCGGUACGGCCGCCACUCGAAUACUGUAAUCCUCGGAAUAUUAAGUGAA [JR_ExcTryptA_Sub002] = 57.1
GGCGCGGUGAUGGUAGCCGGACGCUAGGUACGAGGACCGGUACGGCCGCCACUCGGAGUCCUGGGACAUGAGGAUCACCCAUGUA [Same State Trp A GF18] = 118

Quick batch: apparent KD of MS2 coat protein for everything below.
1. ACGGAUCGGAAACGAUCCGCGGCGAGGGUGCGAGGACCGGUACGGCCGCCACUCGGGUAACAUGAGGAUCACCCAUGUCCGAAGA [ETA NuPACK+Vienna+Vienna2 #10 Same Structure]
2. ACGUCCGGAUUACUCGUGGGCAUGGUCGAUACCAGUAUUUUAAUCUACCCUUGGCAGCGACAUGAGGAUCACCCAUGUGCGAUGA [XTheo A #20]
3. ACGGACAUGAGGAUCACCCAUGUGGCCGAAGGAGCGGGAAUUAACCCAGGUAGGUCGCGGAAAUUUUUUAAAUUAUUUUAAUUUU [Same State - Arginine A]

Result:
[60.3, 41.6, 21.5]

Quick batch: apparent KD of MS2 coat protein for everything below.
1. UGUAUGUGAUCUGAUACCAGUCCAACUGGUAAAGCAUGAGGAUCACCCAUGUAAAAUUGGGACCCUUGGCAGCAGAUCGCAUACU
2. ACAUGAGGAUCACCCAUGUAUUGAGCCGAAGGAGCGGCAGGUAUGCCAGGUAGGUCGCGGUUAGAGUAGAUUGAUGUUCUUUUGU [Exclusion - Arginine A / B]
3. GUUAUGGACCUGGAUACCAGCUGGUACAAGGGCGGUCUACAUGAGGAUCACCCAUGUGUCAGCCCUUGGCAGCCAGCAACCCACU [Cele]
4. AGGAAACAACAUGAGGAUCACCCAUGUGAUACCAGUCAAAUAAAAGACCCUUGGCAGCACACAUGACAUGAGGAUCACCCAUGUA [AstrosSSTheA#1]

Result:
1. 190
2. 14.8
3. 16.7
4. 41.5
